Biological target: T1, TGFβ2 (R&D Systems)
T1 construct: also called TGFB2
T1 sequence (P61812 303-414, species assumed, looked up): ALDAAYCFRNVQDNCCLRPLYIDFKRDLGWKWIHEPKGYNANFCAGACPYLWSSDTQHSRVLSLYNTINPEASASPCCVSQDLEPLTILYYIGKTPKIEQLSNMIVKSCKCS
Assay: SPR full titration
pKd: −log10 of the molar value.
reported.endpoint: pKd

binder="affinity matured HcLb 269 (antibody, V domains shown, full IgG; also called canHcLb/55SW/100DY/57SM/30IM + canHcLb/237ND/242TS) VH: EVQLVQSGAEVKKPGASVKVSCKTSGYTFMTYWMNWVRQAPGAGLDWMGQIFPAWGMTNYNEMFEGRVTLTADTSTSTAYMELSSLRAGDIAVYYCARGYGNYALDAMDYWGQGTLVTVSS VL: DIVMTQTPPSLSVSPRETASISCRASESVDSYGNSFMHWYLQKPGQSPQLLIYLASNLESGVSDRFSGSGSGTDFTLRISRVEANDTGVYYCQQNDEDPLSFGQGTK" recorded_measurement=8.52
binder="affinity matured HcLb 217 (antibody, V domains shown, full IgG; also called canHcLb/S55W/D100Y/I30/M + canHcLb/237ND/242TS) VH: EVQLVQSGAEVKKPGASVKVSCKTSGYTFMTYWMNWVRQAPGAGLDWMGQIFPAWGSTNYNEMFEGRVTLTADTSTSTAYMELSSLRAGDIAVYYCARGYGNYALDAMDYWGQGTLVTVSS VL: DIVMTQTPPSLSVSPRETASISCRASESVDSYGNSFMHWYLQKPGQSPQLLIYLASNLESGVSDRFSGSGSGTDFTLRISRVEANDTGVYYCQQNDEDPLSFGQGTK" recorded_measurement=8.41
binder="affinity matured HcLb 266 (antibody, V domains shown, full IgG; also called canHcLb/55SW/100DY/30IM/31TK/28TI/57SM + canHcLb/237ND/242TS) VH: EVQLVQSGAEVKKPGASVKVSCKTSGYIFMKYWMNWVRQAPGAGLDWMGQIFPAWGMTNYNEMFEGRVTLTADTSTSTAYMELSSLRAGDIAVYYCARGYGNYALDAMDYWGQGTLVTVSS VL: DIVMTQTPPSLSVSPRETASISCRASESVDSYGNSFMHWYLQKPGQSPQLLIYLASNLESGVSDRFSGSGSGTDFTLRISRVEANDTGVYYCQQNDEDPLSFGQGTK" recorded_measurement=8.54
